Listing of entries alongside the reported Ki.
Target: Farnesyl pyrophosphate synthase (Homo sapiens)
Sequence (P14324 whole entry): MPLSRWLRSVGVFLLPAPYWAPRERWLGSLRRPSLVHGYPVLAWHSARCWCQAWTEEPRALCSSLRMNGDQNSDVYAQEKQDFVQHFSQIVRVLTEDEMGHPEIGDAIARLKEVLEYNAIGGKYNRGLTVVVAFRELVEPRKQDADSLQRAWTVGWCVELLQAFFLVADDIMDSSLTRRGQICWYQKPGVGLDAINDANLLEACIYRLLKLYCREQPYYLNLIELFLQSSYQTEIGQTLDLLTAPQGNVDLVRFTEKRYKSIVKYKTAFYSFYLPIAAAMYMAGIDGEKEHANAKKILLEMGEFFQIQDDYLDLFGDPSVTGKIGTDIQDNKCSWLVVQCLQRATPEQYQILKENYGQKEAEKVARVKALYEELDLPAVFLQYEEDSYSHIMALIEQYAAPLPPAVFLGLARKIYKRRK
Use nM as the unit, but write only the number.

Worked examples follow.
molecule=NCCCCC(O)(P(=O)(O)O)P(=O)(O)O unit_of_measurement=nM reported_result=48.2
molecule=O=P(O)(O)CCc1cccnc1 unit_of_measurement=nM reported_result=128000
molecule="O=P(O)(O)C(CC1CCCCN1)P(=O)(O)O (stereo not given)" unit_of_measurement=nM reported_result=3.28
molecule=Cc1cccnc1NCC(P(=O)(O)O)P(=O)(O)O unit_of_measurement=nM reported_result=196
molecule=O=P(O)(O)C(Cc1cccnc1)P(=O)(O)O unit_of_measurement=nM reported_result=7.4
molecule="CC1CCCN=C1NC(P(=O)(O)O)P(=O)(O)O (stereo not given)" unit_of_measurement=nM reported_result=1
molecule="O=C(O)C(O)(Cc1cccnc1)P(=O)(O)O (stereo not given)" unit_of_measurement=nM reported_result=61000
molecule=C[n+]1cccc(CC(O)(P(=O)(O)O)P(=O)(O)O)c1 unit_of_measurement=nM reported_result=3.9
molecule="Cc1cccnc1NC(P(C)(=O)O)P(C)(=O)O (stereo not given)" unit_of_measurement=nM reported_result=93000
molecule=O=P(O)(O)OP(=O)(O)O unit_of_measurement=nM reported_result=29800

Next item in the queue.
Field: Ki (Farnesyl pyrophosphate synthase (Homo sapiens)). Entry: Cc1cccnc1NC(P(C)(=O)O)P(=O)(O)O (stereo not given)
11.6
